System: HCC-2998 colon
Experiment: NCI-60 one-dose screen, 48 h
Conditions: 10 µM unless noted
This is part of a sample that, as a whole, favours compounds with a hit. Of some 83,000 tested, about 20% had one in any assay. The source made the active and inactive calls. The calls were made as follows: active = growth percent below 10; inactive = the rest.
Possible outcomes: yes (1) (active), no (0) (inactive)

[
  {
    "compound": "ClCCN(CCCl)c1nc(Cl)c(C2CC(c3ccccc3)=NN2c2cc(Cl)cc(Cl)c2)s1 (stereo not drawn)",
    "category": "no (0)"
  },
  {
    "compound": "CC[C@H](C)[C@H](NC(=O)[C@H]1CCCCN1C)C(=O)N(C)[C@H](C[C@@H](O)c1nc(C(=O)N[C@@H](Cc2ccccc2)C[C@H](C)C(=O)O)cs1)C(C)C",
    "category": "no (0)"
  },
  {
    "compound": "CCOC(=O)[C@@H](C)C[C@H](Cc1ccccc1)NC(=O)c1csc([C@@H](C[C@H](C(C)C)N(C)C(=O)CNC(=O)[C@H]2CCCCN2C)OC(C)=O)n1",
    "category": "yes (1)"
  },
  {
    "compound": "CC(=O)OC[C@]1(C)C=C2C(=O)[C@](C)(O)C3(CC3)C(C)=C2[C@H]1O",
    "category": "yes (1)"
  },
  {
    "compound": "O=C1OCC2=C1C(c1ccccc1)c1cc3c(cc1N2)OCO3 (stereo not drawn)",
    "category": "yes (1)"
  },
  {
    "compound": "C/C1=C/C(=O)O[C@@H]2C[C@@H](CC[C@H](C)/C=C\\C=C\\CC1)O[C@@](O)([C@@H]1CSC(=O)N1CO)C2",
    "category": "no (0)"
  },
  {
    "compound": "O=C(CN1CCN(C(=O)c2ccco2)CC1)Nc1ccc(Cl)cc1C(=O)c1ccccc1Cl",
    "category": "no (0)"
  },
  {
    "compound": "O=C1NC(=O)C(=Cc2ccc(OCCCCC3CCCCC3)c(Cl)c2)C(=O)N1",
    "category": "no (0)"
  }
]

These measurements were taken from PubChem BioAssay (NCI).
